target: GLP-1 Receptor (Homo sapiens, UniProt P43220); assay: GLP-1R agonist cAMP stimulation assay (HEK293/GLP1R/CRE-LUC cells, Cisbio cAMP dynamic 2 kit); assay type: cell-based; conditions: Table 3, HEK293/GLP1R/CRE-LUC cells, 30 min
Sequence (P43220 24-463, species assumed): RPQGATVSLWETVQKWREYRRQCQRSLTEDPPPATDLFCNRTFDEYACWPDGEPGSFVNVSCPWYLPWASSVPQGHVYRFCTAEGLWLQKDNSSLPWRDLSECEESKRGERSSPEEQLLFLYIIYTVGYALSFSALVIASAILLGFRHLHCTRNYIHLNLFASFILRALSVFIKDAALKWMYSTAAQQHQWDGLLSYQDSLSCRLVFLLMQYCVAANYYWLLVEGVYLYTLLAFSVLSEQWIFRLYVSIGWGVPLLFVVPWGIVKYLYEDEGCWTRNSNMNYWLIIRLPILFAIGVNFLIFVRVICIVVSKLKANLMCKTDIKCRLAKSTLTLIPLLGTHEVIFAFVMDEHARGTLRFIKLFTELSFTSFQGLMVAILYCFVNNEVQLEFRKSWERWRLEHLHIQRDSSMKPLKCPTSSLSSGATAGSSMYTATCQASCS
measure.name: log10(EC50) (log10 of the value in nM)
Give log10 of EC50, with EC50 taken in nM.

Past entries and their recorded results:
Cc1cc(-n2nc3c(c2-n2ccn(-c4ccc(S(=N)(=O)C5CC5)cc4)c2=O)[C@H](C)N(C(=O)c2cc4cc(C5CCOCC5)ccc4n2[C@@]2(c4noc(=O)[nH]4)C[C@@H]2C)CC3)cc(C)c1F (single isomer, unassigned) [Compound 135]    -3.00
Cc1cc(-n2nc3c(c2-n2ccn(-c4ccc(S(C)(=N)=O)cc4)c2=O)[C@H](C)N(C(=O)c2cc4cc(C5CCOCC5)ccc4n2-c2cccc(S(=O)(=O)Nc4ncccn4)c2)CC3)cc(C)c1F (some centres unmarked) [Compound 119]    0.00
CCS(=N)(=O)c1ccc(-n2ccn(-c3c4c(nn3-c3ccc(F)c(C5CC5)c3)CCN(C(=O)c3cc5cc(C6CCOCC6)ccc5n3[C@@]3(c5noc(=O)[nH]5)C[C@@H]3C)[C@H]4C)c2=O)c(F)c1 (single isomer, unassigned) [Compound 166]    -1.72
CN=S(=O)(c1ccc(-n2ccn(-c3c4c(nn3-c3cc(C)c(Cl)c(C)c3)CCN(C(=O)c3cc5cc([C@H]6CCOC(C)(C)C6)ccc5n3[C@@]3(c5noc(=O)[nH]5)C[C@@H]3C)[C@H]4C)c2=O)c(F)c1)C1CC1 (single isomer, unassigned) [Compound 203]    -1.49
CN=S(=O)(c1ccc(-n2ccn(-c3c4c(nn3-c3cc(C)c(F)c(C)c3)CCN(C(=O)c3cc5cc(C6CCOCC6)ccc5n3[C@@]3(c5noc(=O)[nH]5)C[C@@H]3C)[C@H]4C)c2=O)c(F)c1)C1CC1 (single isomer, unassigned) [Compound 222]    -1.08
CCS(=N)(=O)c1ccc(-n2ccn(-c3c4c(nn3-c3cc(C)c(F)c(C)c3)CCN(C(=O)c3cc5cc(C6CCOCC6)ccc5n3[C@@]3(c5noc(=O)[nH]5)C[C@@H]3C)[C@H]4C)c2=O)c(Cl)c1 (single isomer, unassigned) [Compound 136]    -1.33

Now consider the entry below.
Task: Query: log10(EC50); subject: CN=S(=O)(c1cc(F)c(-n2ccn(-c3c4c(nn3-c3cc(C)c(F)c(C)c3)CCN(C(=O)c3cc5cc([C@H]6CCOC(C)(C)C6)ccc5n3[C@@]3(c5noc(=O)[nH]5)C[C@@H]3C)[C@H]4C)c2=O)cc1C)C1CC1 (single isomer, unassigned) [Compound 194]
Output: -1.34

###

target: GLP-1 Receptor (Homo sapiens, UniProt P43220); assay: GLP-1R agonist cAMP stimulation assay (HEK293/GLP1R/CRE-LUC cells, Cisbio cAMP dynamic 2 kit); format: cell-based; details: Table 3, HEK293/GLP1R/CRE-LUC cells, 30 min
API: label(entry) gives fulfilled if the entry's EC50 is strictly smaller than 30 pM; on equality or larger values it gives not fulfilled.

Cc1cc(-n2nc3c(c2-n2ccn(-c4ccc5c(c4F)CN=S5(=O)C4CC4)c2=O)[C@H](C)N(C(=O)c2cc4cc([C@H]5CCOC(C)(C)C5)ccc4n2[C@@]2(c4noc(=O)[nH]4)C[C@@H]2C)CC3)cc(C)c1F (single isomer, unassigned) [Compound 192]    fulfilled
Cc1cc(-n2nc3c(c2-n2ccn(-c4ccc(S(C)(=N)=O)nc4)c2=O)[C@H](C)N(C(=O)c2cc4cc(C5CCOCC5)ccc4n2[C@@]2(c4noc(=O)[nH]4)C[C@@H]2C)CC3)cc(C)c1F (stereo partly drawn)    not fulfilled
CN=S(C)(=O)c1ccc(-n2ccn(-c3c4c(nn3-c3cc(C)c(F)c(C)c3)CCN(C(=O)c3cc5cc(C6CCOCC6)ccc5n3[C@@]3(c5noc(=O)[nH]5)C[C@@H]3C)[C@H]4C)c2=O)cc1 (single isomer, unassigned) [Compound 112]    not fulfilled
Cc1cc(-n2nc3c(c2-n2ccn(-c4ccc(S(=N)(=O)C5CCC5)cc4F)c2=O)[C@H](C)N(C(=O)c2cc4cc(C5CCOCC5)ccc4n2[C@@]2(c4noc(=O)[nH]4)C[C@@H]2C)CC3)cc(C)c1F (single isomer, unassigned) [Compound 168]    fulfilled
CCS(=N)(=O)c1ccc(-n2ccn(-c3c4c(nn3-c3cc(C)c(F)c(C)c3)CCN(C(=O)c3cc5cc(C6CCOCC6)ccc5n3[C@@]3(c5noc(=O)[nH]5)C[C@@H]3C)[C@H]4C)c2=O)cc1 (single isomer, unassigned) [Compound 116]    not fulfilled

Consider now this further molecule.
Task: Strictly below 30 pM: is that where EC50 of Cc1cc(-n2nc3c(c2-n2ccn(-c4ccc(C5(S(C)(=N)=O)CC5)cc4)c2=O)[C@H](C)N(C(=O)c2cc4cc(C5CCOCC5)ccc4n2[C@@]2(c4noc(=O)[nH]4)C[C@@H]2C)CC3)cc(C)c1F (single isomer, unassigned) [Compound 177] sits?
Output: fulfilled

###

Readings of pEC50 for the listed compounds
biological target: GLP-1 Receptor (Homo sapiens, UniProt P43220); test: GLP-1R agonist cAMP stimulation assay (HEK293/GLP1R/CRE-LUC cells, Cisbio cAMP dynamic 2 kit); format: cell-based; conditions: Table 3, HEK293/GLP1R/CRE-LUC cells, 30 min
API: returns pEC50 as number; meaning -log10 of concentration in mol/L.

Past entries and their recorded results:
CCS(=N)(=O)c1ccc(-n2ccn(-c3c4c(nn3-c3ccc(F)c(C5CC5)c3)CCN(C(=O)c3cc5cc(C6CCOCC6)ccc5n3[C@@]3(c5noc(=O)[nH]5)C[C@@H]3C)[C@H]4C)c2=O)c(F)c1 (single isomer, unassigned) [Compound 167]    9.92
Cc1cc(-n2nc3c(c2N2CCN(c4ccc(S(C)(=N)=O)cc4)C2=O)[C@H](C)N(C(=O)c2cc4cc(C5CCOCC5)ccc4n2[C@@]2(c4noc(=O)[nH]4)C[C@@H]2C)CC3)cc(C)c1F (stereo partly shown) [Compound 103]    9.85
Cc1cc(-n2nc3c(c2-n2ccn(-c4ccc(S(C)(=O)=NC#N)cc4)c2=O)[C@H](C)N(C(=O)c2cc4cc(C5CCOCC5)ccc4n2[C@@]2(c4noc(=O)[nH]4)C[C@@H]2C)CC3)cc(C)c1F (single isomer, unassigned) [Compound 122]    10.34

Now consider the entry below.
Task: Query: pEC50; subject: Cc1cc(-n2nc3c(c2-n2ccn(-c4ccc(S(=N)(=O)CC5CC5)cc4F)c2=O)[C@H](C)N(C(=O)c2cc4cc(C5CCOCC5)ccc4n2[C@@]2(c4noc(=O)[nH]4)C[C@@H]2C)CC3)cc(C)c1F (single isomer, unassigned) [Compound 178]
Output: 10.03
